- Measured target: DfrB-H5 (Methylobacterium pseudosasicola)
- Construct: gene SAMN05192568_10896; full-length 365-residue protein, N-terminal His6 tag
- Method summary: dihydrofolate reductase activity assay at […] nm with purified enzyme; Ki from IC50 by Cheng-Prusoff
- Assay type: biochemical
- Condition info: read-out: 2 / Ki
Value kind: pKi
Worth noting: pKi values are minus log10 of concentrations stated in mol/L.

Entry CC1(C)Nc2nc(N)[nH]c(=O)c2N=C1C(=O)NCCN1CCC(SC[C@H]2O[C@@H](n3cnc4c(N)ncnc43)[C@H](O)[C@@H]2O)CC1 , tested on DfrB-H5 (Methylobacterium pseudosasicola), has a reported pKi of 4.52
